# reported pIC50; entries follow
- Assayed Target: PPDK from Flaveria trinervia (Flaveria trinervia, UniProt P22221)
- Construct: His10 (N); TEV cleavage site (N); made in house; host or cells: E. coli BL21 (DE3)
- Sequence (P22221 80-953): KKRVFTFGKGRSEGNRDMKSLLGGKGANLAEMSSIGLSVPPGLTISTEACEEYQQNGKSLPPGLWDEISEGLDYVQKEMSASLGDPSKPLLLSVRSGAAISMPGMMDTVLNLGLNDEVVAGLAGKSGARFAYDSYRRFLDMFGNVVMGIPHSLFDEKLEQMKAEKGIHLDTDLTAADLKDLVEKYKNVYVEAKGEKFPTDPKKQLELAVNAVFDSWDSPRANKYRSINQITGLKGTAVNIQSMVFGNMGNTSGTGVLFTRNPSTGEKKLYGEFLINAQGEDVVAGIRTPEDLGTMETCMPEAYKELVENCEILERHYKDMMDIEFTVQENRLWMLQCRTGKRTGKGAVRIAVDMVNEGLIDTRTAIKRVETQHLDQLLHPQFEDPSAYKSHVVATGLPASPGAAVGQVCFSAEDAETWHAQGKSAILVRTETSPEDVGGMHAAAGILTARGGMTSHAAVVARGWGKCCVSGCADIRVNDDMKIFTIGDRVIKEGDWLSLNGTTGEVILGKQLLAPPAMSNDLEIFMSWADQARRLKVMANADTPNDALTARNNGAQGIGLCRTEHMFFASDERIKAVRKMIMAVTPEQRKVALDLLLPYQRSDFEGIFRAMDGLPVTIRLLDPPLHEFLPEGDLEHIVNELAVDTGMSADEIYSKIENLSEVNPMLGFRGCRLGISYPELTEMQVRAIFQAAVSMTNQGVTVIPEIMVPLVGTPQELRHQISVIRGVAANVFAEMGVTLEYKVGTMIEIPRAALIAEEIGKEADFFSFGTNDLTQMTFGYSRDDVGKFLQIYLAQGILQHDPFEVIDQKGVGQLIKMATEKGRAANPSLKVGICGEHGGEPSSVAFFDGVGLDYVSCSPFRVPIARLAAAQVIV
- Test Description: biochemical
- Run Conditions: 0.2 μM PPDK, inhibitor 0-200 μM, mean ± standard error
Expect pIC50 as a plain number equal to -log10 of the molar concentration.

- Compound: "C=C1CCC[C@H]2[C@](C)(CC3=C(O)C(=O)C=C(OC)C3=O)[C@@H](C)CC[C@]12C"
  Observed Measurement: 3.13
- Compound: "COc1ccc2c(c1)c(C1=C(c3c[nH]c4ccccc34)C(=O)NC1=O)cn2CCCN(C)C"
  Observed Measurement: 5.82
- Compound: "O=C1NC(=O)C(c2c[nH]c3ccccc23)=C1c1c[nH]c2ccccc12 [BIM IV, bisindolylmaleimide IV]"
  Observed Measurement: 6.12

Switching to the query record.
Exam item: Consider the compound Cc1ccc(F)c(NC(=O)Nc2ccc(-c3cccc4[nH]nc(N)c34)cc2)c1 . State its measured pIC50.
Marked response: 4.95
